- tgt: Recombinant human H-PGDS (Homo sapiens, UniProt O60760)
- Sequence (O60760 whole entry): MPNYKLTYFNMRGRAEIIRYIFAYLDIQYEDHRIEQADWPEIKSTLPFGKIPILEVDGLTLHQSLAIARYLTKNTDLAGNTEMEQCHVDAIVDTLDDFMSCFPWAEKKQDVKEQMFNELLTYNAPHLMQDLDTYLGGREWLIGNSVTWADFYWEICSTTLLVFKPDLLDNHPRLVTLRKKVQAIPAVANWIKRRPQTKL
- assay info: H-PGDS inhibitory activity (prostaglandin D2 production from prostaglandin H2, measured by LC-MS/MS)
- test settings: recombinant human H-PGDS 1.0 nM expressed in E. coli; prostaglandin H2 25 μM; preincubated 15 minutes on ice, reacted on ice for 1 minute; concentration that inhibits prostaglandin D2 production by 50%
observable: IC50 (nM)
Field: numeric (nM). Do not append units.

Use these answered entries as a reference point.
# molecule, numeric readout
measured = [
    ("O=C(N[C@H]1CCN(c2cccnn2)C1)c1ccc(-c2nccc3occc23)cc1", 1.2),
    ("O=C(NC1CCN(c2ncc(F)cn2)CC1)c1ccc(-c2nccc3occc23)cc1", 3),
    ("O=C(NC1CCC1)c1ccc(-c2nccc3[nH]ccc23)cc1", 0.58),
]

**Q:** Requested field: IC50. Item: NC(=O)c1cc(N2CCC(NC(=O)c3ccc(-c4nccc5occc45)cc3)CC2)ccn1
**A:** 1.2

**Q:** Requested read-out: IC50. Entry: CO[C@@H]1CN(c2ncc(CO)cn2)C[C@H]1NC(=O)c1ccc(-c2nccc3occc23)cc1
**A:** 5.6

**Q:** // IC50 lookup, key: CCOC(=O)c1cnc(N2CCC(NC(=O)c3ccc(-c4nccc5occc45)cc3)CC2)nc1
**A:** 0.69

**Q:** Report IC50 for O=C(N[C@@H]1CC[C@@H](CO)OC1)c1ccc(-c2nccc3occc23)cc1 please.
**A:** 2.5

**Q:** Request the reported IC50 associated with CC(N[C@H]1CC[C@H](NC(=O)c2ccc(-c3nccc4occc34)cc2)CC1)C(F)F (some centres unmarked)
**A:** 3.2

====

- tgt: Recombinant human H-PGDS (Homo sapiens)
- assay info: H-PGDS inhibitory activity (prostaglandin D2 production from prostaglandin H2, measured by LC-MS/MS)
- test settings: recombinant human H-PGDS 1.0 nM expressed in E. coli; prostaglandin H2 25 μM; preincubated 15 minutes on ice, reacted on ice for 1 minute; concentration that inhibits prostaglandin D2 production by 50%
observable: IC50 (nM)
Express your answer in nM, writing the number without its unit.

Worked cases, IC50 given:
# molecule, observable, unit of measurement, numeric readout
records = [
    ("O=C(N[C@@H]1CN(c2ncc(CO)cn2)C[C@@H]1F)c1ccc(-c2nccc3occc23)cc1", "IC50", "nM", 1.1),
    ("Cc1ccnc(N2CCC(NC(=O)c3ccc(-c4nccc5occc45)cc3)CC2)c1", "IC50", "nM", 1.7),
    ("O=C(N[C@@H]1CC[C@@H](O)C1)c1ccc(-c2nccc3occc23)cc1 (relative stereo)", "IC50", "nM", 6.4),
    ("O=C(NCC1CCCCC1)c1ccc(-c2nccc3occc23)cc1", "IC50", "nM", 32),
    ("C[C@]1(O)CC[C@@H](NC(=O)c2ccc(-c3nccc4occc34)cc2)CC1", "IC50", "nM", 1.7),
    ("O=C(N[C@H]1CC[C@H](N2CCC(F)(F)C2)CC1)c1ccc(-c2nccc3occc23)cc1", "IC50", "nM", 1.8),
    ("O=C(N[C@H]1CCN(CC(F)(F)F)C1)c1ccc(-c2nccc3occc23)cc1", "IC50", "nM", 9.7),
    ("O=C(N[C@@H]1C[C@H]2C[C@@H](O)C[C@H]2C1)c1ccc(-c2nccc3occc23)cc1", "IC50", "nM", 1.3),
    ("O=C(Nc1ccccc1)c1ccc(-c2nccc3[nH]ccc23)cc1", "IC50", "nM", 1.1),
    ("N#CC12CCC(NC(=O)c3ccc(-c4nccc5occc45)cc3)(CC1)CC2", "IC50", "nM", 1.3),
]

**Q:** Tell me the measured IC50 of N#Cc1cnc(N2CC[C@H](NC(=O)c3ccc(-c4nccc5occc45)cc3)C2)nc1 , please.
**A:** 1.2

**Q:** Value lookup for IC50; key = O=C(NC1CCN(c2ccccc2)CC1)c1ccc(-c2nccc3occc23)cc1
**A:** 1.1

**Q:** What value of IC50 has been recorded for this entry: O=C(NC1CCN(c2nn[nH]n2)CC1)c1ccc(-c2nccc3occc23)cc1
**A:** 4.4

**Q:** Fill blank: measured IC50 of the molecule CC(C)(O)CO[C@H]1CC[C@@H](NC(=O)c2ccc(-c3nccc4occc34)cc2)CC1 is ____.
**A:** 1.7

**Q:** For the molecule O=C(N[C@H]1CCCC[C@H]1O)c1ccc(-c2nccc3occc23)cc1 (relative stereo) , what IC50 is on record?
**A:** 2.8

**Q:** I would be grateful if you could share the reported IC50 for O=C(N[C@@H]1CC[C@H](O)C1)c1ccc(-c2nccc3occc23)cc1 (relative stereo) .
**A:** 3.1

====

- tgt: Recombinant human H-PGDS (Homo sapiens)
- assay info: H-PGDS inhibitory activity (prostaglandin D2 production from prostaglandin H2, measured by LC-MS/MS)
- test settings: recombinant human H-PGDS 1.0 nM expressed in E. coli; prostaglandin H2 25 μM; preincubated 15 minutes on ice, reacted on ice for 1 minute; concentration that inhibits prostaglandin D2 production by 50%
observable: pIC50
Scale for pIC50: -log10 of concentration given in mol/L; no unit attached.

As a guide, the following entries are already answered.
# compound, tgt, numeric readout
records = [
    ("O=C(N[C@H]1CCN(c2cccc(F)n2)C1)c1ccc(-c2nccc3occc23)cc1 [Example 226]", "Recombinant human H-PGDS (Homo sapiens)", 8.55),
    ("O=C(NC1CCN(c2ccc(F)cn2)CC1)c1ccc(-c2nccc3occc23)cc1 [Example 149]", "Recombinant human H-PGDS (Homo sapiens)", 8.74),
    ("Cc1cc(CNC(=O)c2ccc(-c3nccc4[nH]ccc34)cc2)nn1C [Example 38]", "Recombinant human H-PGDS (Homo sapiens)", 8.89),
]

**Q:** Give its pIC50 value. Item: O=C(NCC1CCOCC1)c1ccc(-c2nccc3occc23)cc1 [Example 82]
**A:** 7.96

**Q:** Given C[C@]1(O)CC[C@H](NC(=O)c2ccc(-c3nccc4occc34)cc2)CC1 [Example 259] , state its recorded pIC50.
**A:** 8.70

**Q:** Which pIC50 is listed for COCCO[C@H]1CC[C@H](NC(=O)c2ccc(-c3nccc4occc34)cc2)CC1 [Example 311] ?
**A:** 8.60

**Q:** Consider the compound O=C(NCc1cccnc1)c1ccc(-c2nccc3[nH]ccc23)cc1 [Example 10] and give its measured pIC50.
**A:** 8.77

**Q:** # input compound: O=C(NC1CCN(c2cnccn2)CC1)c1ccc(-c2nccc3occc23)cc1 [Example 145] ; wanted: its pIC50
**A:** 8.92

**Q:** Entry O=C(N[C@H]1CC[C@H](OC(F)F)CC1)c1ccc(-c2nccc3occc23)cc1 [Example 263] has what pIC50?
**A:** 8.38

**Q:** What does the data say about its pIC50? Entry: O=C(NCc1ccncc1)c1ccc(-c2nccc3sccc23)cc1 [Example 60]
**A:** 7.82

**Q:** Entry under review: O=C(NC1CCN(c2cccnn2)CC1)c1ccc(-c2nccc3occc23)cc1 [Example 190] . Reported pIC50?
**A:** 9.12

**Q:** Please look up its pIC50: CC(C)(O)C1CC2(CC(NC(=O)c3ccc(-c4nccc5occc45)cc3)C2)C1 (stereo not drawn) [Example 122]
**A:** 8.89

====

- tgt: Recombinant human H-PGDS (Homo sapiens)
- assay info: H-PGDS inhibitory activity (prostaglandin D2 production from prostaglandin H2, measured by LC-MS/MS)
- test settings: recombinant human H-PGDS 1.0 nM expressed in E. coli; prostaglandin H2 25 μM; preincubated 15 minutes on ice, reacted on ice for 1 minute; concentration that inhibits prostaglandin D2 production by 50%
Each record here notes measured pIC50.
Entry type: numeric. Quantity: pIC50, the -log10 of concentration in molar units.

Answered cases to consult:
# molecule, pIC50
records = [
    ("O=C(NCc1ccccc1)c1ccc(-c2nccc3sccc23)cc1 [Example 59]", 8.02),
    ("O=C(N[C@@H]1CCC[C@@H](O)C1)c1ccc(-c2nccc3occc23)cc1 (relative stereo) [Example 266]", 8.42),
    ("CCC(=O)N1CCC(NC(=O)c2ccc(-c3nccc4occc34)cc2)CC1 [Example 234]", 8.80),
    ("Cc1cc2[nH]ccc2c(-c2ccc(C(=O)N[C@H]3CC[C@H](C(C)(C)O)CC3)cc2)n1 [Example 338]", 8.62),
    ("O=C(NCc1cccc(OC(F)F)c1)c1ccc(-c2nccc3[nH]ccc23)cc1 [Example 35]", 8.80),
]

**Q:** Looking for the measured pIC50 of O=C(N[C@@H]1CN(c2ncc(CO)cn2)C[C@H]1F)c1ccc(-c2nccc3occc23)cc1 [Example 203] , can you help?
**A:** 8.72

**Q:** Data request, read-out pIC50, for O=C(N[C@H]1CC[C@H](OCC2(O)CC2)CC1)c1ccc(-c2nccc3occc23)cc1 [Example 258]
**A:** 9.03

**Q:** Look up pIC50 for this molecule: CC(C)(O)[C@H]1CC[C@H](NC(=O)c2ccc(-c3nc(C#N)cc4occc34)cc2)CC1 [Example 317]
**A:** 7.29
